Source: the DeepSol protein solubility set

- METHOD_NOTES: soluble on expression in E. coli; label from the status in PepcDB or PDB records
REPORTED_METRIC: soluble on expression in E. coli

Example results:
MVRVCACLIVKNEAAHLARCLGSVQPWVDDIVVVDTGSTDETPAIARQFTERLFTFPWQDDFAAARNYSLEQATGDWILVIDADEVLVTLQEPPVPLGQQLAGSPFTAYQLLRREIGTGEQFSDFAIVRLFRNLPTLRYQGRFHEQLVSTAAAPLTIGTLETLRIDHYGYQPAQIQAKMRDRNIPILERIRASEGLPLHLLFALADMYQAVNNPVEAENCYQELFDRLLPHLLSGQLPENAPGALPEILNQLGRRLLATGDHDTLQLLCQQGLAWFPTYPPLNDLAGRWLMTLGFPLGATAYFEYCLELGRTNGYSKQMIFPLGYVREIAAEQLGRAYEALGDRERAAAAFAQAAALRQGKAHPQLEHHHHHH; soluble
MGHHHHHHSHIKPGEEVFTSYIDLLYPTEDRNDRLRDSYFFTCECQECTTKDKDKAKVEIRKLSDPPKAEAIRDMVRYARNVIEEFRRAKHYKSPSELLEICELSQEKMSSVFEDSNVYMLHMMYQAMGVCLYMQDWEGALQYGQKIIKPYSKHYPLYSLNVASMWLKLGRLYMGLEHKAAGEKALKKAIAIMEVAHGKDHPYISEIKQEIESH; not soluble
MGSDKIHHHHHHMLAICQLVKMKRICFYLKMQKGYMALNKKLKGDGEVLKDSFLAGAGKAKIVFSQDDFPIKQFTGIHDNLYIRVLLIDSNQRFAFVSIDLTSLTKDRIDFYKSLIHQLTSIDEGNIWVSVTHTFSAPHIPLESQKDDEEKIISMMLFKTSAALREAINQALLSMKPADIGFSYSSCPLNINRNIPTRLGWWLGRNDDGYSNHDVRTVTLKQENNEIISILYNFDVQASVMDNVSTKSGELLISSDLVGKASSDIENTFGKNSVAIFLPGSAGDQAPIFKGSNWKIMKNNRLVCSSIHEEAYSLVDQLGVKLSQSVQRAVFKTEKFADNCEIKINHYSVYLPEQRVKYSTKALRPSKKYQFEKPVIHFLSLLIFCT; not soluble
MASLLNARTAVITGGAQGLGLAIGQRFVAEGARVVLGDVNLEATEVAAKRLGGDDVALAVRCDVTQADDVDILIRTAVERFGGLDVMVNNAGITRDATMRTMTEEQFDQVIAVHLKGTWNGTRLAAAIMRERKRGAIVNMSSVSGKVGMVGQTNYSAAKAGIVGMTKAAAKELAHLGIRVNAIAPGLIRSAMTEAMPQRIWDQKLAEVPMGRAGEPSEVASVAVFLASDLSSYMTGTVLDVTGGRFI; soluble
MSRTAKPQNGRRRFLRDVVRTAGGLAAVGVALGLQQQTARASGVRLRPPGALNENVFASACVRCGQCVQACPYDTLKLATLASGLSAGTPYFVARDIPCEMCEDIPCAKVCPSGALNKDIASIDDSRMGLAVLLDQENCLNFQGLRCDVCYRECPKIDEAITLELDRNMRTGKHARFLPTVHSDACTGCGKCEKVCVLEQPAIKVLPLSLAKGELGHHYRFGWLEGKDGKS; not soluble

Exam item: Consider the sequence shown here: MGSDKIHHHHHHMHLGKINEDVFNKVIYPHLGERRKEVVVGPQHGVDTGAIDLQDGRVLVVKTDPVFIVPQFGFKKAAWFAVHILASDVMTSGIPPEYAVIDLNLPPRIKDEEFEEMWIGIHEALKEIGVMVVGGHTGVYEGTDYPMVGGFTMFGIGEKERLGMPSKVKVGDSVIMTKGPAIEATGLLTNLYPEYFKQRLSNEIFNEAYNMYWKMSCWKDGLIASRIGIHMMHDATEGGVFGALTEVARASSKGMRIYEERFFINRAVREVTKLVNIDPWISISEGTMIIVTDKGEEVRNTLIREGIEAEIIGEIVDQSGEVTMVKKDGSRVKIEHPLEDPFWRAFFDLASKT What is its recorded soluble on expression in E. coli?
Marked response: not soluble

Exam item: Consider the sequence shown here: MSLDDKATKPHDRLAQALAEDMAAVNALIRERMSSEHAPRIPEVTAHLIEAGGKRLRPMLTLAAARLVGYGGPFHVHLAATVEFIHTATLLHDDVVDESRQRRGRPTANLLWDNKSSVLVGDYLFARSFQLMTDTGNMRVMEILANASAVIAEGEVLQLTAAQNLATTEDIYLRVIRGKTAALFSAATEVGGIIGGAPEDQVQALFDYGDALGIAFQIVDDLLDYGGKSAEIGKNTGDDFRERKLTMPVIKAVALADEAERAFWKRVIEKGDQQDGDLEHAMALMTKHGTLEATRLAAIGWTDTARKALAKLPDHPLRQMLDDLADYVVERVREGHHHHHH What is its recorded soluble on expression in E. coli?
Marked response: soluble

Exam item: Consider the sequence shown here: MSLNSMELLIIKERRIDYDGSAIRSHWAYRNFGILGDSLVVFRGKCNVKVEEMVDIEDLRLRKEIKGDDMVHYILELFWHPDILLASSLQKLLIARLVELLWNYGIEASRRGDDIYVNGRKLSISIATVSPVSIKIHIGLNVKTVGVPPGVDAIGLEELGIDPTEFMERSAKALVEEIEKVRKDSLKVRWVTEGHHHHHH What is its recorded soluble on expression in E. coli?
Marked response: soluble

Exam item: Consider the sequence shown here: MGSDKIHHHHHHMSELLGLIVDARPLQAHFRIPHTSLLLDTYPFPPKTTAVGMLAGCMGLGEEGFKKLLEKIKYGVIIEDPGEKIEEVSVIYKNPYSPSYPITRVSLYKPRFRMFFAGEERVIEEAYEGLLDPKFVPYMGDSESLFYPGKKRYVEVVDVQEGKEDILRSVIPEVKFKEFVPLRRKVLVPKVYEAPVKFTYKGKSRRAVYGRFIAFSGGYVKLEKKIDVLLFDGEPIATF What is its recorded soluble on expression in E. coli?
Marked response: not soluble

Exam item: Consider the sequence shown here: MPMFTSFDHQMMSRAIELAWRGRFTTSPNPNVGCVITRGEQIVGEGFHFRAGEPHAEVHAMRQAGELTRGATAYVTLEPCSHYGRTPPCAEGLIKAGVAKVICAMQDPNPQVAGKGVQMLRDAGIEVEVGLLEADARVLNRGFLKRMETGMPFVQLKMAASLDGQTALANGKSQWITSPAARKDVQRFRAQASAILSTSQTVLADNASLAVRWYDLPSSVQAQYAEADLRQPLRVILDRQHQLHPELALYQTPSPVLRVASENAELCISAENGKLDLRELLALLAQQHNVNQLWVEAGSQLAQSLIEQKLVDEIILYLAPKLMGSDGRGLFGALGLTEMAEAIELKIEDCRMVGADLRIIATPKTKD What is its recorded soluble on expression in E. coli?
Marked response: not soluble
